# credit: patent US20250263390A1

Target: ERα (Homo sapiens, UniProt P03372)
Construct: host or cells: MCF7
Sequence (P03372 whole entry): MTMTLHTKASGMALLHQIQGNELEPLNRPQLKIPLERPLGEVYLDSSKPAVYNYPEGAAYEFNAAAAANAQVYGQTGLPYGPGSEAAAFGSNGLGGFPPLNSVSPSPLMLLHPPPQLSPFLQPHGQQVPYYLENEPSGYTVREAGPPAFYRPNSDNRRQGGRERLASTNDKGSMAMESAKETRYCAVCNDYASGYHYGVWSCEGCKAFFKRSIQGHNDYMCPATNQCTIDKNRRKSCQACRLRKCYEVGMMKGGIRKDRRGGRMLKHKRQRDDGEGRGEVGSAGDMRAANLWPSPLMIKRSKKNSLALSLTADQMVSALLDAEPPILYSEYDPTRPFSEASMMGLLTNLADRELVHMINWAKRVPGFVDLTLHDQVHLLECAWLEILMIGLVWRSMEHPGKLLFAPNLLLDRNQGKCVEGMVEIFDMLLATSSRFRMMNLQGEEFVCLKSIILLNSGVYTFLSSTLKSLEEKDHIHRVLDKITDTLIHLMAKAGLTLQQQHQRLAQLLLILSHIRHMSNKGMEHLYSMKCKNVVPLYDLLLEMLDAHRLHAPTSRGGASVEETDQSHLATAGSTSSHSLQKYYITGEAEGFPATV
Assay: Estrogen receptor degradation activity: breast cancer cell ERα in cell western assay
Format: cell-based
Conditions: MCF7 cells, 4 hours, relative to fulvestrant 0.1 μM positive control
Recorded measurements of % Degradation At 0.3 μM, one per entry

| structure-string | % Degradation At 0.3 μM, % |
| --- | --- |
| Cl.O=C(O)c1ccc2c(c1)CCCC(c1cccc(OC(F)(F)F)c1)=C2c1ccc(CC2CN(CCCF)C2)cc1 | 92 |
| CCc1cc(C(F)(F)F)ccc1C1=C(c2ccc(CC3CN(CCCF)C3)cc2)c2ccc(C(=O)O)cc2CCC1 | 91 |
| O=C(O)c1ccc2c(c1)CCCC(c1ccccc1OC(F)(F)F)=C2c1ccc(CC2CN(CCCF)C2)cc1 | 92 |
